molecular target: mushroom tyrosinase; test: Mushroom tyrosinase enzyme assay with L-DOPA as substrate (475 nm); conditions: L-DOPA oxidation, pH 6.8, 30 °C; mean of triplicate determinations ± standard deviation
Below is a list of entries, each paired with its recorded IC50 value.
Report as a plain number; the unit µM is understood.

Study these solved cases before continuing.
CC(C)=CCCC(C)=Cc1nc2ccc(Cl)cc2c(=O)[nH]1 = 168
CC(C)=CCCC(C)=Cc1nc2cccc(F)c2c(=O)[nH]1 = 105
CC(C)=CCCC(C)=Cc1nc2ccccc2c(=O)[nH]1 = 103

Switching to the query record.
Provide measured IC50 value, entry: CC(C)=CCCC(C)=Cc1nc2cc(C)ccc2c(=O)[nH]1
253

* * *

target: mushroom tyrosinase; assay: Kinetic studies of tyrosinase inhibition (enzyme concentration plots, Lineweaver-Burk plots); conditions: free enzyme; from plots of slope versus compound concentration; read-out: inhibitor constant (KI)
property-label: Ki (µM)
Answer with a number only, understood to be in µM.

Please report the measured Ki for CC(C)=CCCC(C)=Cc1nc2ccccc2c(=O)[nH]1
117
